Parameter: melting point. Scope: all listed entries.

The cases that follow already have their melting point on record.
[
  {
    "Compound": "ON=C1CCCc2c1ccc1ccccc21",
    "Recorded Endpoint": "melting point",
    "Result": "174 to 175 °C"
  },
  {
    "Compound": "O=C1c2ccccc2S(=O)(=O)N1CS(=O)(=O)c1ccccc1",
    "Recorded Endpoint": "melting point",
    "Result": "169 to 171 °C"
  },
  {
    "Compound": "CC(=O)N1C(=O)Cc2cc(F)c(N3C(=O)C4=C(CCCC4)C3=O)cc21",
    "Recorded Endpoint": "melting point",
    "Result": "191 to 194 °C"
  },
  {
    "Compound": "CCCN1N=C2C(=Cc3ccccc3)CSCC2C1c1ccccc1 (stereo not given)",
    "Recorded Endpoint": "melting point",
    "Result": "111 to 120 °C"
  },
  {
    "Compound": "CCCCCCCCCCCCCCC(=S)NCCCN1CCOCC1",
    "Recorded Endpoint": "melting point",
    "Result": "46 °C"
  },
  {
    "Compound": "CC(=O)Oc1c(C)nc(N(C)C)nc1-c1ccccc1",
    "Recorded Endpoint": "melting point",
    "Result": "126 to 128 °C"
  },
  {
    "Compound": "CC(C)c1cc(S(=O)(=O)c2c(Br)cc(CC(N)C(=O)O)cc2Br)ccc1O (stereo not given)",
    "Recorded Endpoint": "melting point",
    "Result": "210 to 217 °C"
  },
  {
    "Compound": "Cc1c(S(=O)(=O)c2ccc(Cl)cc2)csc1-c1nc(-c2c(F)cccc2F)nn1C",
    "Recorded Endpoint": "melting point",
    "Result": "183 to 185 °C"
  }
]

The recorded melting point for entry `Oc1c(F)ccc(-c2c3ccccc3c(Br)c3sc4ccccc4c23)c1F` equals 180 to 182 °C

The recorded melting point for entry `NC(=O)c1[nH]c2ccc(Cl)cc2c1S(=O)(=O)c1cccc(Cl)c1` equals 272 to 273 °C

The recorded melting point for entry COc1cc(N)c(Cl)cc1C(=O)N[C@H]1CCN(CCCNc2ncccn2)C[C@H]1OC (relative stereo) equals 158 °C

The recorded melting point for entry `Cc1nnc(-c2ccc3occ(-c4ccccc4Cl)c3c2)o1` equals 83 to 84 °C

The recorded melting point for entry CCOc1ccc(C(=O)N2CC(C(=O)OC)N(S(=O)(=O)c3ccc(OC)cc3)Cc3ccccc32)cc1 (stereo not given) equals 187 to 190 °C

The recorded melting point for entry `CCCCc1nn(-c2cc(NC(=O)CC)ccc2Cl)c(=O)n1Cc1ccc(-c2ccccc2S(=O)(=O)NC(=O)OC(C)(C)C)cc1F` equals 137 to 140 °C

The recorded melting point for entry `COc1cc(C=CC(CCc2ccco2)=NO)ccc1O` equals 110 to 120 °C

The recorded melting point for entry CC(=O)NC(C)(C)c1ccc(C(C)N2CCN(c3ccccc3)CC2)cc1 (stereo not given) equals 169 to 171 °C

The recorded melting point for entry `CCCCCC(=S)SCCC` equals 55 to 56 °C

The recorded melting point for entry CCC12CCC3c4ccc(OC)cc4CCC3C1C=CC2=O (stereo not given) equals 158 to 160 °C

The recorded melting point for entry `CCCCOCCOc1ccc(-c2ccc(N3CCC(=O)C3)c(C=C(C)C(=O)OCC)c2)cc1` equals 98.5 to 99 °C

The recorded melting point for entry `O=Cc1c2ccccc2cc2c1sc1ccccc12` equals 199 °C

---

Recorded Endpoint: melting point

The cases that follow already have their melting point on record.
[
  {
    "Molecule": "CCCCCCCCCCCCc1ccc(N=C(C)c2ccccc2)cc1",
    "Result": "47 °C"
  },
  {
    "Molecule": "CCOC(=O)n1c(C(=O)c2cccc(Cl)c2)c(NC(=O)CC)c2ccc(Cl)cc21",
    "Result": "189 to 191 °C"
  }
]

The recorded melting point for entry CCCC(NC(=O)Nc1ccc(Cl)cc1)P(=O)(c1ccccc1)c1ccccc1 (stereo not given) equals 275 to 278 °C

The recorded melting point for entry `CC(=O)Oc1cc(S(=O)(=O)c2ccccc2)ccc1OCc1ccccc1` equals 107 to 111 °C

---

Parameter: melting point. Scope: all listed entries.

The cases that follow already have their melting point on record.
[
  {
    "Compound": "O=c1[nH]c2ccccc2c(=O)n1CCCCCn1ccnc1",
    "Result": "160 to 162 °C"
  },
  {
    "Compound": "O=C(Nc1cccc2c1C(=O)c1c-2n[nH]c1-c1ccc(C(=O)N2CCN(CCO)CC2)s1)NN1CCOCC1",
    "Result": "186 to 187 °C"
  },
  {
    "Compound": "CCS(=O)(=O)ON=C(C#N)c1ccc(OC)cc1",
    "Result": "102 °C"
  },
  {
    "Compound": "O=Cc1cccc([N+](=O)[O-])c1F",
    "Result": "46 to 47 °C"
  },
  {
    "Compound": "COC(=O)c1ccc(CN(CC2CCOCC2)S(=O)(=O)c2ccc(Cl)cc2)cc1",
    "Result": "115 to 117 °C"
  }
]

# input for lookup
The recorded melting point for entry COc1cc2c(cc1OC)N(C(=O)CCSC(C)=O)C(C(=O)O)CC2 (stereo unspecified) equals 104 to 107 °C

---

Recorded Endpoint: melting point

The cases that follow already have their melting point on record.
[
  {
    "Compound": "O=C(O)CCC(=O)c1cccc([N+](=O)[O-])c1",
    "melting point": "162 to 164 °C"
  },
  {
    "Compound": "CC(=O)Oc1ccc(C2COc3c(ccc(OC(C)=O)c3C)C2O)cc1 (stereo not given)",
    "melting point": "135 to 137 °C"
  },
  {
    "Compound": "CC(C)(C)C1OC1C(O)c1ccc(C(F)(F)F)cc1 (stereo not given)",
    "melting point": "74 to 75 °C"
  },
  {
    "Compound": "CCOC(=O)C1C(=O)CC(C)(O)C(C(=O)OCC)C1c1cccc2oc3c(c12)CCCC3 (stereo not given)",
    "melting point": "155 to 157 °C"
  }
]

The recorded melting point for entry `O=C(O)CCCCCc1ccc2ccccc2n1` equals 105 to 108 °C

---

Parameter: melting point. Scope: all listed entries.

[
  {
    "Structure Smiles String": "O=P(OC1=Nc2ccc(Cl)cc2C(c2ccccc2Cl)=NC1)(N1CCOCC1)N1CCOCC1",
    "Recorded Endpoint": "melting point",
    "Result": "185 to 187 °C"
  },
  {
    "Structure Smiles String": "FC(F)(F)c1cccc(-n2cnnc2Oc2ccccc2)c1",
    "Recorded Endpoint": "melting point",
    "Result": "83 to 85 °C"
  },
  {
    "Structure Smiles String": "CCCCc1cc(C(=O)O)c(=O)n(CCCC)c1C",
    "Recorded Endpoint": "melting point",
    "Result": "106 to 108 °C"
  },
  {
    "Structure Smiles String": "CC(=O)NC[C@H]1CN(c2ccc(N3CCC(n4cc(C=O)nn4)CC3)c(F)c2)C(=O)O1",
    "Recorded Endpoint": "melting point",
    "Result": "168 to 170 °C"
  }
]

# input for lookup
The recorded melting point for entry `O=C(NCCCCCC(=O)C(F)(F)F)OCC1c2ccccc2-c2ccccc21` equals 83 to 88 °C

---

Parameter: melting point. Scope: all listed entries.

The cases that follow already have their melting point on record.
[
  {
    "Compound": "COc1ccc2c(c1)Cc1c(-c3cccs3)n[nH]c1-2",
    "melting point": "212 to 214 °C"
  },
  {
    "Compound": "CS(=O)c1c(C#N)nn(-c2c(Cl)cc(C(F)(F)F)cc2Cl)c1NCc1cnccn1 (stereo not given)",
    "melting point": "198 °C"
  },
  {
    "Compound": "COCC(O)c1nc2c(C(F)(F)F)cccc2c(O)c1C(=O)Nc1nccs1 (stereo not given)",
    "melting point": "216 to 218 °C"
  },
  {
    "Compound": "O=C(NC1CC2CCC1C2)n1cc(F)c(=O)[nH]c1=O (stereo not given)",
    "melting point": "252 to 255 °C"
  },
  {
    "Compound": "COc1cnn(C2CCCCO2)c(=O)c1Cl (stereo not given)",
    "melting point": "118 to 120 °C"
  }
]

The recorded melting point for entry `CN[C@@H]1COc2cc(Cl)cc(-c3ccc(Cl)cc3Cl)c2O1` equals 140 °C

---

Parameter: melting point. Scope: all listed entries.

The cases that follow already have their melting point on record.
[
  {
    "Compound": "CCCc1nc2c(N)nc3ccccc3c2n1CCCCCC(=O)NC",
    "melting point": "158 to 159 °C"
  },
  {
    "Compound": "COC(=O)c1sc(C#N)cc1[N+](=O)[O-]",
    "melting point": "83 to 85 °C"
  },
  {
    "Compound": "ON=C(Cl)c1ccc(Cl)c(Cl)c1",
    "melting point": "104 to 106 °C"
  }
]

The recorded melting point for entry `S=C(N1CCC(c2ccccc2)(c2ccccc2)CC1)n1ccnc1` equals 161 to 165 °C

The recorded melting point for entry CCOc1cc2c(cc1OC)C(c1ccc(C(=O)N(C(C)C)C(C)C)cc1)=NC1CC[N+](C)([O-])CC21 (stereo not given) equals 195 to 198 °C
